target: Follistatin-related protein 3 (Homo sapiens); assay: compounds binding follistatin-related protein 3 – biochemical, small-molecule microarray, 635 nm fluorescence, primary screen (AID 1105); conditions: FSTL3 binding, higher = more signal;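 note: score merges emission near 667 nm and signal to noise per printed spot across three slides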

molecule	composite z-score
CCCC[C@H]1OB(O)C[C@H]2C1=C(COc1ccccc1)C[C@H]1C(=O)N(Cc3ccccc3)C(=O)[C@H]12	0.581
COCCOC(=O)N1C(=O)[C@@]2(c3cc(C#Cc4ccc(OC)cc4)ccc31)[C@H](c1ccc(O)cc1)N1[C@H](c3ccccc3)[C@H](c3ccccc3)OC(=O)[C@H]1[C@@H]2C(=O)N1CCN(c2ncccn2)CC1	0.85
CC(C)C(=C=CC[C@H](O)c1ccccc1OCCO)CCO	-0.449
C=C(CCCC)/C(=C/C[C@H](OC(C)=O)c1ccc(CO)o1)c1cc(C(=O)OC)ccc1OC	1.25
CC(C)[Si]1(C(C)C)O[C@@H](c2ccccc2)c2cc(-c3ccc(-c4ccc(Cl)c(Cl)c4)o3)nc(CCc3ccccc3)c21	-1.54
C=CCC(OC(C)=O)[C@@H]1[C@@H](N(Cc2ccc(-c3cccc(C(F)(F)F)c3)o2)C(=O)c2ccc(C)cc2)c2cc(OCCCO)ccc2N1C(=O)c1ccc2ccccc2n1 (stereo not given in full)	0.483
COCC1C2CC[C@H]3C(OCc4ccc(F)cc4C(F)(F)F)OC[C@]4(C)[C@H]3C2=C(CN4C(=O)OC(C)(C)C)[C@H](C)C1COC (stereo not given in full)	0.45
OCCCc1cc[n+](Cc2cccc(OC(F)(F)F)c2)cc1	1.03
COCCOC(=O)N1C(=O)[C@@]2(c3cc(C#CCCO)ccc31)[C@H](C(=O)NC[C@H](O)c1ccccc1)[C@H]1C(=O)O[C@H](c3ccccc3)[C@H](c3ccccc3)N1[C@@H]2c1ccc(OCCO)cc1	1.26
C=CCOC(=O)[C@H]1[C@@H]2C(=O)O[C@@H](c3ccccc3)[C@@H](c3ccccc3)N2[C@@H](c2ccc(OCCOC(=O)[C@H]3C[C@H]4C(=O)N[C@@H](CCCC[N+](C)(C)C)C(=O)N4[C@H]3c3ccc(O)cc3)cc2)[C@]12C(=O)Nc1ccccc12	0.563

----------
Here, each record is paired with measured z-score data.
assay: changes in parasitized red cell lysis, either direction – P. falciparum Indochina, OD700, 3 h, PSAC antagonist project, primary screen (AID 1156); settings: P. falciparum-infected erythrocytes, osmotic lysis, higher = more signal, called active from +8 up or from −8 down
Active and inactive are the calls of the source.
value kind: z-score

> print(dat)
                                   compound  value.kind          obs.value
1  COC(=O)[C@@]1(Cc2ccc(OC)cc2)[C@H]2c3cc(C(=O)N(C)C)n(CCSCCO)c3C[C@H]2CN1C(=O)c1ccccc1     z-score   0.453 (inactive)
2  COc1ccccc1CN1C(=O)c2ccccc2[C@](Cc2ccccc2I)(C(=O)NC2CC2)[C@@H]1c1ccc(CO)cc1     z-score    2.38 (inactive)
3  C#C[C@H](O[Si](C#CCCCCCC)(C(C)C)C(C)C)c1ccccc1     z-score  -0.177 (inactive)
4  C=C(C)[C@@H]1CC=C(C(O)C2C=CC3C(=O)N(Cc4ccccc4)C(=O)C3N2n2cnnc2)CC1 (some centres undefined)     z-score    1.28 (inactive)
